# credit: the supplement of paper PMC12645437

Assayed target: T1, CRBN, Q96SW2;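 note: pooled lentiviral library of zinc finger degron-EGFP fusions in mCherry-positive Jurkat cells, FACS-sorted after compound exposure, with degron abundance counted by next-generation sequencing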
T1 chain: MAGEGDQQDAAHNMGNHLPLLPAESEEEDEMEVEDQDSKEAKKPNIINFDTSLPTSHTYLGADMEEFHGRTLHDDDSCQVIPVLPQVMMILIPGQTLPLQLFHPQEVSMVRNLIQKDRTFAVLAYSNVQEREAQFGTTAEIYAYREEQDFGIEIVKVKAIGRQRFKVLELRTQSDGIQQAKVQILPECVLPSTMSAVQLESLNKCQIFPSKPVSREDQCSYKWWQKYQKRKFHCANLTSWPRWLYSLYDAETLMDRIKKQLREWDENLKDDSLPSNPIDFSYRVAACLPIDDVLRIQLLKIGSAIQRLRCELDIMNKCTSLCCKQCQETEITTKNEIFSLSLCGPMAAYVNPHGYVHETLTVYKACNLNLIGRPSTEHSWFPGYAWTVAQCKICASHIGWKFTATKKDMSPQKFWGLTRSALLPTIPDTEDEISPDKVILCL
Method summary: log2 fold change of degron read counts, EGFP-low vs EGFP+ sorted cells (limma voom), compound-induced degradation; higher = more compound-induced degradation of the degron-EGFP fusion; degrons are variants of IKZF1/3 zinc finger 2; compound dose not given here
Condition details: Jurkat; 18 h; compound: compound 19 (5-tert-butyl-thalidomide)
Over roughly 8,300 sequences, “log2 fold change of degron read counts, EGFP-low vs EGFP+ sorted cells (limma voom), compound-induced degradation” has its median near -1.1; the highest 2% begin near 3.2. This excerpt belongs to a sample that is enriched for the highest values.
Experimental endpoint: log2 fold change of degron read counts

FGCPICGAQFTQKGNLLRHIKL [46F_47G_49P_50I_52G_53A_54Q_55F_67L_, Q9UKT9]; 3.58
FHCPICGAQFTQKGNLLRHIKL [46F_47H_49P_50I_52G_53A_54Q_55F_67L_, Q9UKT9]; 2.46
FQCPICGAQFTQKGNLLRHIKL [46F_47Q_49P_50I_52G_53A_54Q_55F_67L_, Q9UKT9]; 0.697
FDCPICGAQFTQKGNLLRHIKL [46F_47D_49P_50I_52G_53A_54Q_55F_67L_, Q9UKT9]; 2.24
